The origin of these recorded values is the supplement of paper PMC4466140.

measuredTarget: CaRvs167
protocolDetails: SPOT peptide array binding signal intensity (averaged, normalized) (arbitrary units (background-subtracted, floor 0; scale differs between SH3 domains)); higher = stronger binding of the SH3 domain to the peptide
propertyLabel: SPOT peptide array binding signal intensity

> print(dat)
            binder  measurednumber
1  NNNKMRPHLPPLSSG            53.7
2  LRWRHKFFLPAIAAI            12.8
3  IVNKPLPPLPVAGSS            1.17
4  AERNYAPRLPRRETS            1200
